TESTED SYSTEM: Dual specificity protein kinase CLK4 (Homo sapiens) (UniProt Q9HAZ1)
Sequence (Q9HAZ1 whole entry, looked up): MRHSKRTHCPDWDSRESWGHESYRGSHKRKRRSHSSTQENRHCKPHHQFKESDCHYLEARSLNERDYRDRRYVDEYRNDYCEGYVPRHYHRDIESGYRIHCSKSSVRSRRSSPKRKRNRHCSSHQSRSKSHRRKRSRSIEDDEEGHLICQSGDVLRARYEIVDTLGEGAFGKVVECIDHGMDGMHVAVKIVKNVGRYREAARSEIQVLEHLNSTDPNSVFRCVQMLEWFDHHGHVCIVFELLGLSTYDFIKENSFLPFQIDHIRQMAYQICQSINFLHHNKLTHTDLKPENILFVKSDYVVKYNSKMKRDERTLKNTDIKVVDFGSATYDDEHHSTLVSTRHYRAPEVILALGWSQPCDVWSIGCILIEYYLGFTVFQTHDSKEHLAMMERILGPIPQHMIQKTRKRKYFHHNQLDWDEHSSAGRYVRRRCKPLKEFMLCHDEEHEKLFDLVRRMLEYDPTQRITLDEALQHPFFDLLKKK
EXPERIMENT DESCRIPTION: qHTS Assay for Inhibitors of CDC-like Kinase 4 (Kinase-Glo Assay) (AID 1770); further: nearly all actives have a fitted effect of over 65% in size
CONDITIONS: recombinant Clk4, Kinase-Glo ATP depletion luminescence; series mostly up to 66.7 µM
Results filed as inconclusive are left out. Activity calls are given as the source filed them. The call rests on the fitted dose curve; in most records, active means well fitted inhibition curve with a large enough effect; inconclusive means small, poorly fitted or top-dose-only effect; inactive means flat fitted curve, though single readings scatter.
I would appreciate it if you answered using one of these outcomes: YES (active), NO (inactive)

entry_smiles=Cc1cnc(CNc2ccnc(-c3ccccc3C(F)(F)F)n2)cn1 label_class=NO
entry_smiles=Cc1nc2cnc(N3CCOCC3)nc2n(Cc2ccc(F)cc2)c1=O label_class=NO
entry_smiles=c1cncc(-c2cncnc2NC2CCNCC2)c1 label_class=NO

Please let me know the test result on file for COCCNc1nc(-c2ccccc2OC)nc2ccccc12 .
NO

Please let me know the test result on file for COCCn1c(=O)c(-c2cn(C)c3ccccc23)nc2cnc(Oc3cccc(Cl)c3)nc21 .
NO

Please let me know the test result on file for COc1ccc(-n2c(=O)cnc3cnc(N(C)C)nc32)cc1 .
YES

Please let me know the test result on file for COc1cccc(-c2nc(NCc3ccccc3)c3ccccc3n2)c1 .
YES

Please let me know the test result on file for COCCn1c(=O)c(-c2cccs2)nc2cnc(N(C)C)nc21 .
NO

Please let me know the test result on file for Cn1c(=O)c(-c2cccc(C#N)c2)nc2cnc(Oc3ccccc3)nc21 .
NO

Please let me know the test result on file for COc1ccccc1CNc1nc(-c2c(C)noc2C)nc2ccccc12 .
NO

Please let me know the test result on file for FC(F)(F)c1ccccc1-c1nc(N2CCOCC2)c2ccccc2n1 .
YES

###

TESTED SYSTEM: Cytochrome P450 1A2 (Homo sapiens) (UniProt P05177)
Sequence (P05177 whole entry, looked up): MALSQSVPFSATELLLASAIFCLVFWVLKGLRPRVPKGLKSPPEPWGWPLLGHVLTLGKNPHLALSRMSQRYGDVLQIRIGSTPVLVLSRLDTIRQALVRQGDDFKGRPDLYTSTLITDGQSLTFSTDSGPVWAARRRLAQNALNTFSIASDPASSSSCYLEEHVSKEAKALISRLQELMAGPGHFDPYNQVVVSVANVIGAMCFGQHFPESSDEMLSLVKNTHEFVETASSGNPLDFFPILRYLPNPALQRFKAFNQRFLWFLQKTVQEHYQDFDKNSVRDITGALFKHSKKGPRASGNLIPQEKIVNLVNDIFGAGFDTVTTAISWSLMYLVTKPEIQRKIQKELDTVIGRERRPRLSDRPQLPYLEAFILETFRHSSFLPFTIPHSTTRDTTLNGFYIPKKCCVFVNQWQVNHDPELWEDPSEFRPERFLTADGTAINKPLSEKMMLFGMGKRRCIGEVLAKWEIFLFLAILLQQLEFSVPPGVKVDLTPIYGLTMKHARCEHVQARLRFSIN
EXPERIMENT DESCRIPTION: p450-cyp1a2 (AID 410)
CONDITIONS: recombinant CYP1A2, luciferin-ME demethylation, luminescence; series mostly up to 57 µM
Records with an inconclusive call do not appear. Activity calls are given as the source filed them. Calls come from the whole dose curve.
I would appreciate it if you answered using one of these outcomes: 1 (yes) (active), 0 (no) (inactive)

Known results for compounds:
entry_smiles=COC(=O)N1CCC[C@@]2(CCN(C(=O)Nc3cccc(C#N)c3)C2)C1 label_class="0 (no)"
entry_smiles=O=C(Nc1ccccc1)N1CC2(CCN(C(=O)c3ccncc3)CC2)C1 label_class="1 (yes)"
entry_smiles=CN1CCN(c2ccnc(-c3ccoc3)n2)CC1 label_class="1 (yes)"
entry_smiles=Cn1cc(-c2nc3cncnc3n(-c3ccccc3)c2=O)c2ccccc21 label_class="1 (yes)"
entry_smiles=c1ccc(Nc2cc(-c3ccoc3)ncn2)cc1 label_class="1 (yes)"

Query compound follows.
Please let me know the test result on file for CNc1ccnc(-c2ccccc2C(F)(F)F)n1 .
1 (yes)

###

TESTED SYSTEM: Cytochrome P450 1A2 (Homo sapiens) (UniProt P05177)
EXPERIMENT DESCRIPTION: p450-cyp1a2 (AID 410)
CONDITIONS: recombinant CYP1A2, luciferin-ME demethylation, luminescence; series mostly up to 57 µM
Inconclusive results are not listed. The source made the active and inactive calls. Calls come from the whole dose curve.
I would appreciate it if you answered using one of these outcomes: active, inactive

Known results for compounds:
entry_smiles=O=c1c(-c2ccc(Cl)cc2)nc2cnc(N3CCOCC3)nc2n1-c1ccccc1 tested_system="Cytochrome P450 1A2 (Homo sapiens) (UniProt P05177)" label_class=active
entry_smiles=CCn1c(=O)c2[nH]c(-c3ccccc3)nc2n(CC)c1=O tested_system="Cytochrome P450 1A2 (Homo sapiens) (UniProt P05177)" label_class=active
entry_smiles=CC(=O)N1CCC2(CC1)CN(c1ccccc1)C2 tested_system="Cytochrome P450 1A2 (Homo sapiens) (UniProt P05177)" label_class=inactive
entry_smiles=Fc1ccc(Nc2ccnc(-c3ccccc3C(F)(F)F)n2)cc1 tested_system="Cytochrome P450 1A2 (Homo sapiens) (UniProt P05177)" label_class=active
entry_smiles=CN(Cc1ccco1)c1ncncc1-c1ccccc1Cl tested_system="Cytochrome P450 1A2 (Homo sapiens) (UniProt P05177)" label_class=active
entry_smiles=COc1cccc(Cn2c(=O)c(-c3cn(C)c4ccccc34)nc3cnc(N4CCNCC4)nc32)c1 tested_system="Cytochrome P450 1A2 (Homo sapiens) (UniProt P05177)" label_class=active

Please let me know the test result on file for COCC(=O)N1CCC[C@@]2(CCN(Cc3ccccc3)C2)C1 .
inactive

Please let me know the test result on file for O=C(c1ccco1)N1CCC2(CC1)CN(Cc1cc(C(F)(F)F)cc(C(F)(F)F)c1)C2 .
inactive

Please let me know the test result on file for CN(C)c1ccc(-c2cc(-n3ccnc3)ncn2)cc1 .
active

Please let me know the test result on file for COc1ccc(Oc2ncc3nc(-c4cn(C)c5ccccc45)c(=O)n(C4CC4)c3n2)cc1 .
active

Please let me know the test result on file for O=c1cnc2cncnc2n1Cc1ccccc1Cl .
active
